System tested: mouse ACVR2A (mouse, UniProt P27038 20-135, limits assumed); note: test concentration or dose not given here
Sequence (P27038 20-135 limits assumed): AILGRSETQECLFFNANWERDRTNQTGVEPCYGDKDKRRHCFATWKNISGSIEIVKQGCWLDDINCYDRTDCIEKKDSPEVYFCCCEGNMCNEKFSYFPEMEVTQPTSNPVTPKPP
Assay summary: ELISA

[
  {
    "Binder": "376_F09 (antibody, V domains shown, Group II) VH: EVQLLESGGGLVQPGGSLRLSCAASGFTFDSYSMHWVRQAPGKGLEWVSSINYNGGYKSYADSVKGRFTISRDNSKNTLYLQMNSLRAEDTAVYYCARAATWHDTHLDYWGQGTLVTVSS VL: DIQMTQSPSSLSASVGDRVTITCRASQSILTYVNWYQQKPGKAPKLLIYAVTSRASGVPSRFSGSGSGTDFTLTISSLQPEDFATYYCQQSYDTPLTFGGGTKVEIK",
    "optical density / OD": 3.59
  },
  {
    "Binder": "366_F10 (antibody, V domains shown, Group I) VH: EVQLLESGGGLVQPGGSLRLSCAASGFTFDSYSMNWVRQAPGKGLEWVAGINYNGGYTGYADSVKGRFTISRDNSKNTLYLQMNSLRAEDTAVYYCARAANWHDTHLDYWGQGTLVTVSS VL: DIQMTQSPSSLSASVGDRVTITCRASQSIVSYLNWYQQKPGKAPKLVIYAATSRASGVPSRFSGSGSGTDFTLTISSLQPEDFATYYCQQSYDTPLTFGGGTKVEIK",
    "optical density / OD": 2.21
  },
  {
    "Binder": "374_A12 (antibody, V domains shown, Group II) VH: EVQLLESGGGLVQPGGSLRLSCAASGFTFDSYGMHWVRQAPGKGLEWVSSINYNGGYTSYADSVKGRFTISRDNSKNTLYLQMNSLRAEDTAVYYCARAATWHDTHLDYWGQGTLVTVSS VL: DIQMTQSPSSLSASVGDRVTITCRASQSILTYLNWYQQKPGKAPKLLIYAATSRASGVPSRFSGSGSGTDFTLTISSLQPEDFATYYCQQSDSNPLTFGGGTKVEIK",
    "optical density / OD": 3.26
  },
  {
    "Binder": "373_B01 (antibody, V domains shown, Group II) VH: EVQLLESGGGLVQPGGSLRLSCAASGFTFDSYGMHWVRQAPGKGLEWVSGINYNGGYKSYADSVKGRFTISRDNSKNTLYLQMNSLRAEDTAVYYCARAATWHDTHLDYWGQGTLVTVSS VL: DIQMTQSPSSLSASVGDRVTITCRASQSILSYVNWYQQKPGKAPKLVIYAATSRASGVPSRFSGSGSGTDFTLTISSLQPEDFATYYCQQSYDLPLTFGGGTKVEIK",
    "optical density / OD": 3.58
  },
  {
    "Binder": "375_A11 (antibody, V domains shown, Group I) VH: EVQLLESGGGLVQPGGSLRLSCAASGFTFSDYGMHWVRQAPGKGLEWVSSINYNSGYKSYADSVKGRFTISRDNSKNTLYLQMNSLRAEDTAVYYCARAANWHDTALDYWGQGTLVTVSS VL: DIQMTQSPSSLSASVGDRVTITCRASQSIVSYLNWYQQKPGKAPKLLIYYVTNLASGVPSRFSGSGSGTDFTLTISSLQPEDFATYYCQQSYDNPLTFGGGTKVEIK",
    "optical density / OD": 3.7
  }
]
